protocolSummary: Oral gavage pharmacokinetics, jugular and portal vein sampling, first pass metabolism
Type: in vivo, rat
testSettings: male, Sprague Dawley, rat, plasma (jugular vein sample); rats N=4; Compound 1 75 mg/kg oral gavage; jugular sample; 3 hrs
reportedProperty: concentration at 3 h (ng/mL)

{"compound": "COc1cc2c(cc1OC)-c1n[nH]c(Nc3cccc(F)c3)c1C2 [Compound 1]", "reportedValue": 127}
{"compound": "COc1cc2c(cc1OC)-c1n[nH]c(N(c3cccc(F)c3)[C@H]3O[C@@H](C(=O)O)[C@H](O)[C@@H](O)[C@@H]3O)c1C2 [Cpd 1-GluA]", "reportedValue": 6480}
{"compound": "COc1cc2c(cc1OC)-c1nn(C3OC(C(=O)O)C(O)C(O)C3O)c(Nc3cccc(F)c3)c1C2 (stereo in doubt) [Cpd 1-GluB]", "reportedValue": 90}

----------
protocolSummary: Intracolonic dosing with and without β-glucuronidase, catheterized rat
Format: in vivo
testSettings: male, Sprague Dawley, rat, plasma, other: intracolonic, 10 mg/kg, rats N=6; Compound 1 10 mg/kg intracolonic without enzyme; 2 hrs
Below, each entry is listed alongside its reported concentration at 2 h.

{"compound": "COc1cc2c(cc1OC)-c1n[nH]c(N(c3cccc(F)c3)[C@H]3O[C@@H](C(=O)O)[C@H](O)[C@@H](O)[C@@H]3O)c1C2", "concentration at 2 h [ng/mL]": 3860}
{"compound": "COc1cc2c(cc1OC)-c1nn(C3OC(C(=O)O)C(O)C(O)C3O)c(Nc3cccc(F)c3)c1C2 (stereo in doubt)", "concentration at 2 h [ng/mL]": 13.5}
{"compound": "COc1cc2c(cc1OC)-c1n[nH]c(Nc3cccc(F)c3)c1C2", "concentration at 2 h [ng/mL]": 2}

----------
Below, each entry is listed alongside its reported concentration at 0.5 h.
protocolSummary: Intraduodenal dosing with and without β-glucuronidase, catheterized rat
Assay type: in vivo
testSettings: male, Sprague Dawley, rat, plasma, other: intraduodenal, 10 mg/kg, rats N=6; Compound 1 10 mg/kg intraduodenal without enzyme; 0.5 hrs

{"compound": "COc1cc2c(cc1OC)-c1nn(C3OC(C(=O)O)C(O)C(O)C3O)c(Nc3cccc(F)c3)c1C2 (stereo in doubt)", "concentration at 0.5 h": "72.4 ng/mL"}
{"compound": "COc1cc2c(cc1OC)-c1n[nH]c(N(c3cccc(F)c3)[C@H]3O[C@@H](C(=O)O)[C@H](O)[C@@H](O)[C@@H]3O)c1C2", "concentration at 0.5 h": "687 ng/mL"}
{"compound": "COc1cc2c(cc1OC)-c1n[nH]c(Nc3cccc(F)c3)c1C2", "concentration at 0.5 h": "55.1 ng/mL"}

----------
protocolSummary: Intraduodenal dosing with and without β-glucuronidase, catheterized rat
Type: in vivo
testSettings: male, Sprague Dawley, rat, plasma, other: intraduodenal, 10 mg/kg, rats N=6; Compound 1 10 mg/kg intraduodenal with β-glucuronidase; 0.25 hrs
Experimental: A catheterized rat model was used in which the agent alone or agent and β-glucuronidase enzyme was administered intraduodenally or intracolonically. […] A quantitative method for determining the amount of (6,7-dimethoxy-2,4-dihydro-indeno[1,2-c]pyrazol-3-yl)-(3-fluoro-phenyl)-amine Compound 1 and its major metabolites, glucuronide A (Cpd 1-GluA) and glucuronide B (Cpd 1-GluB) (see Scheme A) in rat plasma was developed using phenacetin as an internal standard. […]

{"compound": "COc1cc2c(cc1OC)-c1n[nH]c(Nc3cccc(F)c3)c1C2 [Compound 1]", "concentration at 0.25 h (µg/mL)": 0.129}
{"compound": "COc1cc2c(cc1OC)-c1n[nH]c(N(c3cccc(F)c3)[C@H]3O[C@@H](C(=O)O)[C@H](O)[C@@H](O)[C@@H]3O)c1C2 [Cpd 1-GluA]", "concentration at 0.25 h (µg/mL)": 6.45}
{"compound": "COc1cc2c(cc1OC)-c1nn(C3OC(C(=O)O)C(O)C(O)C3O)c(Nc3cccc(F)c3)c1C2 (stereo in doubt) [Cpd 1-GluB]", "concentration at 0.25 h (µg/mL)": 0.508}
